Catalogue of MIC readings, one per entry.
- Tested on: Pseudomonas aeruginosa
- Experiment Description: Antibacterial activity against Pseudomonas aeruginosa ATCC 27853 assessed as inhibition of bacterial growth incubated for 18 hrs by microbroth dilution assay
- Format: functional

# count of solved cases: 3
Molecule	System Name	Readout Value
C[C@@H](O)[C@H]1C(=O)N2C(C(=O)O)=C(SCCNC=N)C[C@H]12 [IMIPENEM ANHYDROUS]	Pseudomonas aeruginosa	16 µM
NC[C@H]1O[C@H](O[C@H]2[C@H](O)[C@@H](O[C@H]3O[C@H](CO)[C@@H](O)[C@H](N)[C@H]3O)[C@H](N)C[C@@H]2N)[C@H](O)[C@@H](O)[C@@H]1O [KANAMYCIN]	Pseudomonas aeruginosa	> 128 µM
N=C(N)NCCC[C@@H](NC(=O)CNC(=O)[C@H]1CCCN1C(=O)[C@@H](CCCNC(=N)N)NC(=O)[C@@H](Cc1ccccc1)NC(=O)[C@@H](CCCNC(=N)N)NC(=O)[C@@H](Cc1ccccc1)NC(=O)[C@@H](CCCNC(=N)N)NC(=O)[C@H](N)Cc1ccccc1)C(=O)N[C@H](Cc1ccccc1)C(=O)N[C@H](CCCNC(=N)N)C(=O)N[C@H](Cc1ccccc1)C(=O)N[C@H](CCCNC(=N)N)C(=O)N[C@H](Cc1ccccc1)C(N)=O	Pseudomonas aeruginosa	4 µM

Query molecule follows.
MIC for CO[C@H]1/C=C/O[C@@]2(C)Oc3c(C)c(O)c4c(O)c(c(/C=N/N5CCN(C)CC5)c(O)c4c3C2=O)NC(=O)/C(C)=C\C=C\[C@H](C)[C@H](O)[C@@H](C)[C@@H](O)[C@@H](C)[C@H](OC(C)=O)[C@@H]1C [RIFAMPIN] is 32 µM
